TARGET OR TEST SYSTEM: Transmembrane protease serine 6 (Homo sapiens)
Sequence (Q8IU80 whole entry, the tested form may be a part): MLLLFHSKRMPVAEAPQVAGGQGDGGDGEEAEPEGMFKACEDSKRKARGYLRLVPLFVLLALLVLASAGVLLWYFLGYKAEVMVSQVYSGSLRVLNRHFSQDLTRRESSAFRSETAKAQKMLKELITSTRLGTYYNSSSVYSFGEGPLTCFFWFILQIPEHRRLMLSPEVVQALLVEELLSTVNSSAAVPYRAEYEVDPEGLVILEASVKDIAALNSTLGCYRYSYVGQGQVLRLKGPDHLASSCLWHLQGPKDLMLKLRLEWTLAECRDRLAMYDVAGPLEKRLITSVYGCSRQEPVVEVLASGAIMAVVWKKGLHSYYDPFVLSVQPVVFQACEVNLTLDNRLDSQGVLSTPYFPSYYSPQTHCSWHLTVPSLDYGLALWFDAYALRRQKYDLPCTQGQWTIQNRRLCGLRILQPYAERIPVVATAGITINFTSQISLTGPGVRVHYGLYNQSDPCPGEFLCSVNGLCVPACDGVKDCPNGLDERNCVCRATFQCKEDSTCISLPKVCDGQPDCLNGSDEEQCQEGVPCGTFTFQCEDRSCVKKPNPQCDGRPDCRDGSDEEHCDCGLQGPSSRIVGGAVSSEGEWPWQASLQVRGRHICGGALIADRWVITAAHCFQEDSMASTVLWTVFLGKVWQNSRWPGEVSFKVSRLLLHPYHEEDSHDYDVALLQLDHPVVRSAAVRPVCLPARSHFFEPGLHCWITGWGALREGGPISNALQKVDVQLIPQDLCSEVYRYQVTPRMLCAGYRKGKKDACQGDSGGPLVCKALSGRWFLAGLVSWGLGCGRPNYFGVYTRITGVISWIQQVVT
TEST DESCRIPTION: Inhibition of human purified matriptase 2 catalytic domain expressed in HEK293 cells after 20 mins
METRIC NAME: pKi
Please keep in mind that pKi is minus log10 of the molar concentration; only the number is needed.

molecule N=C(N)c1ccc(CNC(=O)[C@@H]2CCCN2C(=O)[C@@H](CC2CCCCC2)NS(=O)(=O)Cc2ccccc2)cc1 , pKi observed: 6.34

Alright, here's another molecule for you.
molecule N=C(N)NCCC[C@@H](NS(=O)(=O)Cc1ccccc1)C(=O)N1CCC[C@H]1C(=O)NCc1ccc(C(=N)N)cc1 , pKi observed: 6.77

---

Catalogue of compounds with associated Ki
TARGET OR TEST SYSTEM: Transmembrane protease serine 6 (Homo sapiens)
TEST DESCRIPTION: Inhibition of human recombinant matriptase 2 expressed in HEK293 cells in conditioned medium after 20 mins
Type: cell-based
Write down the numeric answer in nM and omit the unit.

compound N=C(N)NCCC[C@@H](NS(=O)(=O)Cc1ccccc1)C(=O)N1CCC[C@H]1C(=O)NCc1ccc(C(=N)N)cc1 , Ki observed: 190

Alright, here's another compound for you.
compound N=C(N)c1ccc(CNC(=O)[C@@H]2CCCN2C(=O)[C@@H](CC2CCCCC2)NS(=O)(=O)Cc2ccccc2)cc1 , Ki observed: 290
